test: Average particle size and PDI by dynamic light scattering (Zetasizer Nano ZS); type: physicochemical; settings: NlucmRNA-loaded LNP, 60:10:40:1
measured-attribute: PdI

// query Return reported PdI; argument: CCCCCCCC/C=C\CCCCCCCC(=O)OCCCCCCC(O)(CCCCCCOC(=O)CCCCCCC/C=C\CCCCCCCC)CCCCOC(=O)C1CCN(C)CC1 [CL15H6, reference compound]
// result 0.495

// query Return reported PdI; argument: CCCCCCCCC(CCCCCC)C(=O)OCCCCCCC(O)(CCCCCCOC(=O)C(CCCCCC)CCCCCCCC)CCCCOC(=O)C1CCN(C)CC1 (stereo not drawn)
// result 0.162

// query Return reported PdI; argument: CCCN(CCC)CCCCC(O)(CCCCCCOC(=O)C(CCC(C)CC(C)(C)C)C(C)CC(C)(C)C)CCCCCCOC(=O)C(CCC(C)CC(C)(C)C)C(C)CC(C)(C)C (stereo not drawn)
// result 0.13

====

# Lookup of reported PDI keyed by entry
Assay: Average particle size (ζ-Average) and PDI by dynamic light scattering (Zetasizer Nano ZSP)
Type: physicochemical
Conditions: FlucmRNA-loaded LNP, 50:10:38.5:1.5
Experimental: The average particle size (ζ-Average) and PDI in PBS(−) of lipid nanoparticles were measured using “Zetasizer Nano ZSP”, an analyzer utilizing dynamic light scattering (manufactured by Malvern). […] The average particle size (ζ-Average) and PDI in PBS (−) of lipid nanoparticles were measured using “Zetasizer Nano ZSP”, an analyzer utilizing dynamic light scattering (manufactured by Malvern).

[
  {
    "compound": "CCCCCCCCC(CC)C(=O)OCCCCCCC(O)(CCCCCCOC(=O)C(CC)CCCCCCCC)CCCCN(CCC)CCC (stereo not drawn)",
    "PDI": 0.068
  },
  {
    "compound": "CCCCCCCC/C=C\\CCCCCCCC(=O)OCCCCCCC(O)(CCCCCCOC(=O)CCCCCCC/C=C\\CCCCCCCC)CCCCOC(=O)C1CCN(C)CC1 [CL15H6, reference compound]",
    "PDI": 0.238
  }
]

Proceeding to the next compound to report its PDI.
// query Return reported PDI; argument: CCCCCC(CCC)C(=O)OCCCCCCC(O)(CCCCCCOC(=O)C(CCC)CCCCC)CCCCN(CCC)CCC (stereo not drawn)
// result 0.025

====

experiment: siRNA/mRNA encapsulation rate by Ribogreen reagent (section IV); assay type: physicochemical; details: FlucmRNA-loaded LNP, 50:10:38.5:1.5
# Lookup of reported % mRNA encapsulation keyed by entry
Record the result as a number with its unit.

// query Return reported % mRNA encapsulation; argument: CCCCCCCCC(CCCCCCC)C(=O)OCCCCCCC(O)(CCCCCCOC(=O)C(CCCCCCC)CCCCCCCC)CCCCN(CCC)CCC (stereo not shown)
// result 99.8%

// query Return reported % mRNA encapsulation; argument: CCCCCCCCCCCC(CCC)C(=O)OCCCCCCC(O)(CCCCCCOC(=O)C(CCC)CCCCCCCCCCC)CCCCOC(=O)C1CCN(C)CC1 (stereo not shown) [CL15F 13-3]
// result 98.62%

// query Return reported % mRNA encapsulation; argument: CCCCCCCC(CCC)C(=O)OCCCCCCC(O)(CCCCCCOC(=O)C(CCC)CCCCCCC)CCCCOC(=O)C1CCN(C)CC1 (stereo not shown) [CL15F 9-3]
// result 95.5%

// query Return reported % mRNA encapsulation; argument: CCCCCC(CCCCC)C(=O)OCCCCCCC(O)(CCCCCCOC(=O)C(CCCCC)CCCCC)CCCCN(CCC)CCC
// result 99.9%

// query Return reported % mRNA encapsulation; argument: CCCCCCCCCCCCCCC(C)C(=O)OCCCCCCC(O)(CCCCCCOC(=O)C(C)CCCCCCCCCCCCCC)CCCCN(CCC)CCC (stereo not shown)
// result 65.9%

// query Return reported % mRNA encapsulation; argument: CCCCCCCCCCCCCCCC(=O)OCCCCCCC(O)(CCCCCCOC(=O)CCCCCCCCCCCCCCC)CCCCOC(=O)C1CCN(C)CC1 [CL15F 16-0]
// result 100.1%

// query Return reported % mRNA encapsulation; argument: CCCCCCCC(CCCCCCC)C(=O)OCCCCCCC(O)(CCCCCCOC(=O)C(CCCCCCC)CCCCCCC)CCCCOC(=O)C1CCN(C)CC1 [CL15F 9-7]
// result 99.5%

====

test system: liver; assay: In vivo Fluc activity of FlucmRNA-loaded LNP by in vivo imaging, liver; settings: Balb/c mice, FlucmRNA-loaded LNP i.v. 0.1 mg mRNA/kg, 6 hours
measured-attribute: Fluc Activity in liver (Avg Radiance [p/s/cm2/sr])
Give just the numeric value; Avg Radiance [p/s/cm2/sr] need not be written.

[
  {
    "compound": "CCCCCCCCCCCCCCC(C)C(=O)OCCCCCCC(O)(CCCCCCOC(=O)C(C)CCCCCCCCCCCCCC)CCCCOC(=O)C1CCN(C)CC1 (stereo not shown) [CL15F 16-1]",
    "assay-value": "2.18E+05"
  },
  {
    "compound": "CCCCCCCCCCCCC(CC)C(=O)OCCCCCCC(O)(CCCCCCOC(=O)C(CC)CCCCCCCCCCCC)CCCCN(CCC)CCC (stereo not shown) [CL4F 14-2]",
    "assay-value": "4.08E+07"
  },
  {
    "compound": "CCCCCCCC(CCCC)C(=O)OCCCCCCC(O)(CCCCCCOC(=O)C(CCCC)CCCCCCC)CCCCN(CCC)CCC (stereo not shown) [CL4F 9-4]",
    "assay-value": "2.55E+07"
  }
]

Proceeding to the next compound to report its Fluc Activity in liver.
// query Return reported Fluc Activity in liver; argument: CCCCCCCCCCCCCCCC(=O)OCCCCCCC(O)(CCCCCCOC(=O)CCCCCCCCCCCCCCC)CCCCN(CCC)CCC [CL4F 16-0]
// result 2.32E+04

====

test: Storage stability of FlucmRNA-loaded LNP at −80, 5, 25 and 40° C.; format: physicochemical; details: maximum storage period 1 week
measured-attribute: period for which quality remained good, −80° C. (week)
Give just the numeric value; week need not be written.

Take a look at these entries with their results.
[
  {
    "compound": "CCCCCCCCC(CC)C(=O)OCCCCCCC(O)(CCCCCCOC(=O)C(CC)CCCCCCCC)CCCCN(CCC)CCC (stereo not drawn)",
    "assay-value": 0
  },
  {
    "compound": "CCCCCC(CCC)C(=O)OCCCCCCC(O)(CCCCCCOC(=O)C(CCC)CCCCC)CCCCN(CCC)CCC (stereo not drawn)",
    "assay-value": 0
  },
  {
    "compound": "CCCN(CCC)CCCCC(O)(CCCCCCOC(=O)C(CCC(C)CC(C)(C)C)C(C)CC(C)(C)C)CCCCCCOC(=O)C(CCC(C)CC(C)(C)C)C(C)CC(C)(C)C (stereo not drawn)",
    "assay-value": 1
  }
]

// query Return reported period for which quality remained good, −80° C.; argument: CCCCCCCCCC(CCCCCCC)C(=O)OCCCCCCC(O)(CCCCCCOC(=O)C(CCCCCCC)CCCCCCCCC)CCCCOC(=O)C1CCN(C)CC1 (stereo not drawn) [CL15F 11-7]
// result 1

// query Return reported period for which quality remained good, −80° C.; argument: CCCCCCCCCCCCCCC(C)C(=O)OCCCCCCC(O)(CCCCCCOC(=O)C(C)CCCCCCCCCCCCCC)CCCCOC(=O)C1CCN(C)CC1 (stereo not drawn) [CL15F 16-1]
// result 0

// query Return reported period for which quality remained good, −80° C.; argument: CCCCCCCCCC(CCCCCCC)C(=O)OCCCCCCC(O)(CCCCCCOC(=O)C(CCCCCCC)CCCCCCCCC)CCCCN(CCC)CCC (stereo not drawn)
// result 1

====

assay: Storage stability of FlucmRNA-loaded LNP at −80, 5, 25 and 40° C.; format: physicochemical; details: maximum storage period 1 week
measured-attribute: period for which quality remained good, −80° C. (week)
Give just the numeric value; week need not be written.

Take a look at these entries with their results.
[
  {
    "compound": "CCCCCC(CCCC)C(=O)OCCCCCCC(O)(CCCCCCOC(=O)C(CCCC)CCCCC)CCCCN(CCC)CCC (stereo not shown)",
    "scale-unit": "week",
    "assay-value": 0
  },
  {
    "compound": "CCCCCCCCCC(CCCCCCCCC)C(=O)OCCCCCCC(O)(CCCCCCOC(=O)C(CCCCCCCCC)CCCCCCCCC)CCCCOC(=O)C1CCN(C)CC1 [CL15F 11-9]",
    "scale-unit": "week",
    "assay-value": 1
  },
  {
    "compound": "CCCCC/C=C\\C/C=C\\CCCCCCCCC(CCCCCCCC/C=C\\C/C=C\\CCCCC)OC(=O)CCCN(C)C [MC3, D-Lin-MC3-DMA, reference compound]",
    "scale-unit": "week",
    "assay-value": 0
  },
  {
    "compound": "CCCCCCCC(CCCCC)C(=O)OCCCCCCC(O)(CCCCCCOC(=O)C(CCCCC)CCCCCCC)CCCCOC(=O)C1CCN(C)CC1 (stereo not shown) [CL15F 9-5]",
    "scale-unit": "week",
    "assay-value": 1
  }
]

// query Return reported period for which quality remained good, −80° C.; argument: CCCCCCCCC(CCCC)C(=O)OCCCCCCC(O)(CCCCCCOC(=O)C(CCCC)CCCCCCCC)CCCCN(CCC)CCC (stereo not shown)
// result 1

// query Return reported period for which quality remained good, −80° C.; argument: CCCCCCCCC(CCCC)C(=O)OCCCCCCC(O)(CCCCCCOC(=O)C(CCCC)CCCCCCCC)CCCCOC(=O)C1CCN(C)CC1 (stereo not shown) [CL15F 10-4]
// result 1

// query Return reported period for which quality remained good, −80° C.; argument: CCCCCC(CCCCC)C(=O)OCCCCCCC(O)(CCCCCCOC(=O)C(CCCCC)CCCCC)CCCCOC(=O)C1CCN(C)CC1 [CL15F 7-5]
// result 0
